Tested on: NCI/ADR-RES ovarian
method-summary: NCI-60 one-dose screen, 48 h (100 = growth as untreated, 0 = no growth, -100 = all killed)
experimental-conditions: 10 µM unless noted
Compounds without any hit were thinned out: in the full panel of roughly 83,000, 20% have a hit.
outcome-measure: growth (%)
The figure you give is taken to be in %; do not add the unit.

Challenge: State its growth: COc1ccc2cc(-c3nn(-c4ccc(C(=O)O)cc4)cc3CO)ccc2c1
Response given: 99.8

Challenge: State its growth: CCNc1ncnc2c1cnn2C1CCCO1 (stereo not given)
Response given: 100

Challenge: State its growth: O=C(/C=C/c1ccccc1)c1ccc(O)c(CN2CCN(c3cc4c(cc3F)c(=O)c(C(=O)O)cn4C3CC3)CC2)c1
Response given: 49

Challenge: State its growth: Cc1ccc(NC(=O)/C=C/c2ccccc2)c(C(N)=O)c1
Response given: 24.7

Challenge: State its growth: COc1ccc(/C=C/c2nc3ccccc3nc2/C=C/c2ccc(OC)cc2)cc1
Response given: 99.5

====

Tested on: SK-OV-3 ovarian
method-summary: NCI-60 one-dose screen, 48 h (100 = growth as untreated, 0 = no growth, -100 = all killed)
experimental-conditions: 10 µM unless noted
About 83,000 compounds went through this panel and 20% of them were active in at least one assay; those are over-represented in the sample as a whole. The source made the active and inactive calls. Rule for the calls: active = growth percent below 10; inactive = the rest.
outcome-measure: growth

Challenge: State its growth: O=C(COc1cccc(/C=C2\COc3ccccc3C2=O)c1)Nc1nccs1
Response given: 99.8% (inactive)

Challenge: State its growth: N#CCCN=Nc1c(O)[nH]c2ccc([N+](=O)[O-])cc12
Response given: 86% (inactive)

Challenge: State its growth: Cc1ccc2c(C(C[N+](=O)[O-])c3ccccc3)c(-c3ccccc3)[nH]c2c1 (stereo unspecified)
Response given: 19.3% [9.5 µM] (inactive)

Challenge: State its growth: COc1cccc(-c2nc3sccn3c2-c2ccnc(NCCCNS(=O)(=O)c3cccc(Cl)c3)c2)c1
Response given: 67.7% (inactive)

Challenge: State its growth: O=C1C=CC(=O)N1c1ccc2c(c1)Cc1cc(F)ccc1-2
Response given: 103% (inactive)

Challenge: State its growth: CSc1nc(NCCN2CCOCC2)c(C#N)c(-c2cccc([N+](=O)[O-])c2)n1
Response given: 97.8% (inactive)

Challenge: State its growth: NC1=C(Cl)C(=O)c2ccc(S(N)(=O)=O)cc2C1=O
Response given: -45.3% (active)

Challenge: State its growth: O=C1c2c(O)cc(O)cc2-c2c(-c3ccc(O)cc3)oc3cc(O)cc1c23
Response given: 15.7% (inactive)

Challenge: State its growth: O=CNc1ccc2c(c1)Cc1cccc(NC=O)c1-2
Response given: 104% (inactive)

Challenge: State its growth: N#Cc1cnn(-c2nc3c(Cl)cccc3s2)c1N
Response given: 78.1% (inactive)

Challenge: State its growth: NC(N)=N/N=C(/c1ccccc1)c1ccc(F)cc1
Response given: 17.6% (inactive)

====

System: UO-31 renal
method-summary: NCI-60 one-dose screen, 48 h
experimental-conditions: 10 µM unless noted
Compounds without any hit were thinned out: in the full panel of roughly 83,000, 20% have a hit. Activity calls are given as the source filed them. The calls were made as follows: active = growth percent below 10; inactive = the rest.
Answer with one of the outcomes given here: active, inactive

Challenge: Lab log entry: Cc1nn(-c2ccc(F)cc2)c2ncnc(Oc3ccc(NC(=O)Nc4ccc(Cl)c(C(F)(F)F)c4)cc3)c12 — outcome as called in the assay?
Response given: inactive

Challenge: Lab log entry: Cc1ccc2oc(=O)cc(C3c4ccc([nH]4)C(c4cc(=O)oc5ccc(C)cc45)c4ccc([nH]4)C(c4cc(=O)oc5ccc(C)cc45)c4ccc([nH]4)C(c4cc(=O)oc5ccc(C)cc45)c4ccc3[nH]4)c2c1 (configuration not stated) — outcome as called in the assay?
Response given: active

Challenge: Lab log entry: O=C1/C(=C/N2N=C(c3ccc4ccccc4c3)CC2c2ccccc2O)SC(=S)N1c1cccnc1 (configuration not stated) — outcome as called in the assay?
Response given: inactive

Challenge: Lab log entry: O=C(N=Nc1c(O)[nH]c2ccccc12)c1cc(-c2ccccc2)on1 — outcome as called in the assay?
Response given: inactive

Challenge: Lab log entry: CCOc1ccc(C(C)=O)cc1NC(=O)c1cccc(-c2nnn(CC)n2)c1 — outcome as called in the assay?
Response given: inactive

Challenge: Lab log entry: CC[C@H]1OC(=O)[C@H](C)[C@@H](O[C@H]2C[C@@](C)(OC)[C@@H](O)[C@H](C)O2)[C@H](C)[C@@H](O[C@@H]2O[C@H](C)C[C@H](N(C)C)[C@H]2O)[C@](C)(O)C[C@H](C)CN(C)[C@H](C)[C@@H](O)[C@]1(C)O — outcome as called in the assay?
Response given: inactive

Challenge: Lab log entry: C=CC(=O)Nc1cccc(-c2nc(SC)nc(Nc3cccc(OC)c3)c2C#N)c1 — outcome as called in the assay?
Response given: inactive

Provenance of the data: PubChem BioAssay (NCI)
